system: DLD-1 colon; experiment: NCI tumour cell line growth inhibition, 48 h
Each entry below lists one item and its recorded TGI value.

Illustrative cases are given below, each with its answer.
MOLECULAR STRING: c1c[nH]c(Cc2ncc(Cc3cnc[nH]3)[nH]2)n1
ASSAY RESULT: > 100 µM

MOLECULAR STRING: O=C(O)c1[nH]c(C(=O)O)c(CC(F)(F)C(F)(F)C(F)(F)F)c1CC(F)(F)C(F)(F)C(F)(F)F
ASSAY RESULT: > 100 µM

Next up:
Short answer for Cc1cc2occ(C)c(=O)c2c2c1OC(C)(C)S2 : TGI was > 100 µM

* * *

system: NCI-H460 lung; assay: NCI tumour cell line growth inhibition, 48 h
MEASUREMENT LABEL: TGI

Recorded TGI, per entry:
COMPOUND: NNC(=O)c1ccccc1NC(=O)/C(=C/c1ccccc1)NC(=O)c1ccccc1
STUDY TARGET: NCI-H460 lung
TGI: > 100 µM

COMPOUND: CCN(CC)CC(C)Nc1ccc(C)c2sc3ccccc3c(=O)c12 (stereo not drawn)
STUDY TARGET: NCI-H460 lung
TGI: 8.25 µM

COMPOUND: O=C1OCC2=Nc3cccc4cccc(c34)N12
STUDY TARGET: NCI-H460 lung
TGI: > 100 µM

COMPOUND: COc1ccc(N=C/C=C/Nc2ccc(OC)cc2)cc1
STUDY TARGET: NCI-H460 lung
TGI: 28.1 µM

Please look at the following compound next.
TGI in this record for O=C1C=C(c2cc(Br)c(O)c(Br)c2)/C(=C/c2cc(Br)c(O)c(Br)c2)O1 : > 75 µM

* * *

Listed compounds paired with reported TGI
tested on: UO-31 renal; experiment: NCI tumour cell line growth inhibition, 48 h
Where a SMILES comes first, the peptide text is derived from it. The star is where a group is joined. Boc = CC(C)(C)OC(=O)*

COMPOUND: C=C(Br)CN(C#N)CC(=C)Br
MEASUREMENT LABEL: TGI
ASSAY RESULT: > 100 µM
--
COMPOUND: CC(NC(=O)C(NC(=O)OC(C)(C)C)C(C)C)C(=O)NCC(=O)O (stereo not drawn) (Boc-Val-Ala-Gly-OH; configuration not given here)
MEASUREMENT LABEL: TGI
ASSAY RESULT: > 100 µM
--
COMPOUND: Nc1ncnc2c1ncn2C1OC(C(=O)O)C(O)C1O (configuration not stated)
MEASUREMENT LABEL: TGI
ASSAY RESULT: > 100 µM
--
COMPOUND: OC1CN=C2c3ccccc3C(O)(c3ccc(Cl)cc3)N2C1 (configuration not stated)
MEASUREMENT LABEL: TGI
ASSAY RESULT: > 100 µM
--
COMPOUND: CC1(C)N=C(N)N=C(N)N1c1cccc(CSc2ccccc2)c1
MEASUREMENT LABEL: TGI
ASSAY RESULT: > 100 µM

API: the following record is the query input.
For the compound CC1=Nn2c(nc3sc4c(c3c2=O)CCCC4)SC1 , the measured TGI on UO-31 renal was > 100 µM

* * *

EKVX NSCLC: reported GI50 for various compounds.

Before answering, review these 4 worked examples.
COMPOUND: CCCCc1cc(O)ccc1O
ASSAY RESULT: 41.9 µM

COMPOUND: COc1ccc(-c2cn3ccnc3c(-c3ccc4ncn(C5CCCCC5)c4c3)n2)cc1
ASSAY RESULT: 3.04 µM

COMPOUND: [Cl][Sn]([c]1ccccc1)[c]1ccccc1
ASSAY RESULT: 6.57 µM

COMPOUND: CC1(C)C(=O)/C(=C\c2ccco2)C[C@]2(C)[C@H]3CC=C4[C@@H]5C[C@](C)(C(=O)O)CC[C@]5(C)CC[C@@]4(C)[C@]3(C)CC[C@@H]12
ASSAY RESULT: 4.63 µM

Memo: O=C(Nc1ccc(Br)cc1)c1cc(Br)cc(Br)c1O , reported GI50: 1.76 µM

Lookup result for O=C(/C=C/c1ccc([N+](=O)[O-])o1)NNC(=O)c1cc2ccccc2cc1O ; measured GI50: 7.2 µM

Form: compound = C=C(CNCCO)[C@@H]1CC[C@]2(CO)CC[C@]3(C)[C@H](CC[C@@H]4[C@@]5(C)CCC(NCCc6ccc(O)cc6)C(C)(C)[C@@H]5CC[C@]43C)[C@@H]12 (some centres undefined) ; GI50 = 1.46 µM

CCOC(=O)c1sc2c(C(=O)OCC)n3ccccc3c2c1N has a reported GI50 of 70 µM

// recorded GI50 for O=C1NC(=O)C(c2ccccc2Cl)=C1Nc1cccc(O)c1 : > 22.5 µM
